Reference for the values: PubChem BioAssay AID1209

biological target: Mannose-6-phosphate isomerase (Homo sapiens) (UniProt P34949); experiment: inhibitors of human PMI, primary screen, biochemical, fluorescence intensity, coupled assay (AID 1209); settings: purified PMI enzyme, at 20 µM;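 further: plate controls were DMSO vehicle for no effect and wells lacking substrate for full effect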
Sequence (P34949 whole entry, looked up): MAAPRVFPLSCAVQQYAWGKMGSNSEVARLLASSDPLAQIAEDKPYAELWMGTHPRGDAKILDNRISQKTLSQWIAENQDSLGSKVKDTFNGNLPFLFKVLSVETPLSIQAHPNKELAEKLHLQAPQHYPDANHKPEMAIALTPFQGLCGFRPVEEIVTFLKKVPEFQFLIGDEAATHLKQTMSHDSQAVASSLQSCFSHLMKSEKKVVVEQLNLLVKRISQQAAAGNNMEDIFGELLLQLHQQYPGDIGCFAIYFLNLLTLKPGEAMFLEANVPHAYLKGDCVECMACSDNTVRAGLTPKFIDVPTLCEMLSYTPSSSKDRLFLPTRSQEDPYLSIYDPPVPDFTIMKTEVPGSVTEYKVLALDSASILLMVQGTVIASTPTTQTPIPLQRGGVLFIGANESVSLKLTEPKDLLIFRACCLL
In all, about 190,000 compounds went through this assay and about 810 (0.43%) were called active. No stated cut-off is given here; in the data, active means inhibition above about 50%; inactive means the rest. The sample as a whole holds a higher share of actives than the screen did.
Outcome field: choose from active, inactive

Take a look at these entries with their results.
[
  {
    "MOLECULE": "Nc1ccc(SCC(=O)Nc2cccc([N+](=O)[O-])c2)cc1",
    "ASSAY TARGET": "Mannose-6-phosphate isomerase (Homo sapiens) (UniProt P34949)",
    "CLASS": "inactive"
  },
  {
    "MOLECULE": "N=c1sccn1CC(=O)NCc1ccc(Cl)cc1Cl",
    "ASSAY TARGET": "Mannose-6-phosphate isomerase (Homo sapiens) (UniProt P34949)",
    "CLASS": "inactive"
  }
]

[ask] Answer briefly: the call reported for O=[N+]([O-])c1ccccc1-c1ccc(/C=N/n2cnnc2)o1 in this assay.
[reply] inactive

[ask] For this molecule, state the assay outcome: O=C(Nc1cccc(S(=O)(=O)Nc2ccccc2F)c1)c1ccc2ccccc2n1
[reply] active

[ask] Answer briefly: the call reported for O=C(Cc1ccc(Cl)cc1Cl)Nc1cccc(S(=O)(=O)Nc2ccccc2F)c1 in this assay.
[reply] active

[ask] Per the assay record, what outcome was assigned to Cc1cccc(N=Cc2cc3c(cc2[N+](=O)[O-])OCO3)c1 ?
[reply] inactive

[ask] How did this test come out for COCCOC(=O)C1=C(C)NC2(O)c3ccccc3C(=O)C12O (stereo unspecified) ?
[reply] active

[ask] Call for entry COc1ccc2cc(/C(C)=N/NC(=O)C3CC3)ccc2c1 :
[reply] inactive

[ask] Kindly provide the recorded test outcome for the following molecule: CCOC(=O)C1CCN(S(=O)(=O)c2ccc(CC)cc2)CC1
[reply] inactive

[ask] Test call for this molecule, please: O=C(CN1C(=O)c2ccccc2C1=O)Nc1cccc(S(=O)(=O)Nc2ccccc2Cl)c1
[reply] inactive

[ask] Recorded call for CCOC(=O)c1sc(N/N=C/c2cccc(C)c2)nc1C ?
[reply] inactive

[ask] What is the recorded call for this molecule in the test? Cc1cc(NC(=O)c2cc(-c3ccccc3)on2)n(-c2ccccc2)n1
[reply] inactive

[ask] Short answer needed: outcome of this test for COc1ccc(C(=O)NC(=S)NCC2CCCO2)cc1 (stereo unspecified) ?
[reply] inactive

[ask] // param item: OCCC1CN(Cc2cnc(-c3cccc4ccccc34)nc2)CCN1C1CCCCC1 (stereo unspecified) ; yields the recorded call
[reply] inactive

[ask] What classification did Cn1c(=O)c2c(ncn2CC(=O)Nc2cccc(S(=O)(=O)Nc3ccccc3F)c2)n(C)c1=O end up with in this test?
[reply] inactive

* * *

biological target: Mannose-6-phosphate isomerase (Homo sapiens); assay: inhibitors of human PMI, primary screen, biochemical, fluorescence intensity, coupled assay (AID 1209); details: purified PMI enzyme, at 20 µM, active compounds read high
The whole screen tested about 190,000 compounds, of which about 810 (0.43%) were called active. This excerpt belongs to a sample that is enriched for actives.
ENDPOINT NAME: inhibition (%)
Numeric only. Scale: %

Answered examples (2):
[
  {
    "CHEMICAL STRUCTURE": "Cc1sc(NC(=O)COc2ccccc2)c(C#N)c1-c1ccccc1",
    "inhibition / %": 4.5
  },
  {
    "CHEMICAL STRUCTURE": "Cc1ccccc1NC(=O)c1sc(NC(=O)COc2ccccc2)c(C#N)c1C",
    "inhibition / %": 5.1
  }
]

Memo: CCOC(=O)c1sc(NC(=O)CSc2n[nH]c(-c3ccncc3)n2)c(C#N)c1C , reported inhibition: -4.9

* * *

biological target: Mannose-6-phosphate isomerase (Homo sapiens) (UniProt P34949); test: inhibitors of human PMI, primary screen, biochemical, fluorescence intensity, coupled assay (AID 1209); conditions: purified PMI enzyme, at 20 µM, active compounds read high
Among all 190,000 compounds or so, about 810 (0.43%) were called active. The sample holds actives, similar compounds and a random draw of the others, so the mix is not that of the screen.
Examples of compounds with documented inhibition follow.
Reply with just the number (in %).

Some compounds with known inhibition results, for comparison:
[
  {
    "COMPOUND": "O=C(CCCc1c[nH]c2ccccc12)NCC1COc2ccccc2O1 (stereo not given)",
    "QUANTITATIVE READOUT": -0.7
  },
  {
    "COMPOUND": "CCCCCNC(=O)c1ccc2c(=O)n(CCOC)c(=O)[nH]c2c1",
    "QUANTITATIVE READOUT": -5.7
  },
  {
    "COMPOUND": "Cc1c(Cl)cccc1NC(=S)NN",
    "QUANTITATIVE READOUT": 5.2
  }
]

Note to self: inhibition recorded for CCOC(=O)c1sc(/N=C/N(C)C)nc1C was -4.1

inhibition measured on CN(C)CCCN(C(=O)COc1ccc(Cl)cc1)c1nc2ccc(F)cc2s1 = -8

Item: COc1ccc(/C=N/NC(=S)Nc2ccccc2[N+](=O)[O-])cc1O | inhibition: 9

The value of inhibition measured for the compound Cc1csc(NC(=O)CSc2nc3ccccc3c(=O)[nH]2)n1 turned out to be 0.4

get_value(item= Oc1c(Cl)cc(Cl)c2cccnc12 , readout=inhibition) returns 21.3

COc1ccc(C2CC2/C(C)=N/OC(=O)c2ccc(F)cc2)cc1 (stereo not given) yielded inhibition of 73.5

compound COc1ccc(N2C(=O)CC(Sc3ncn[nH]3)C2=O)c(OC)c1 (stereo not given) , inhibition observed: 73.4

Value of measured inhibition for the entry O=C(NCCN1C(=O)S/C(=C\c2ccccc2)C1=O)C1CCN(S(=O)(=O)c2cccs2)CC1 : 8.1

* * *

target: Mannose-6-phosphate isomerase (Homo sapiens) (UniProt P34949); assay: inhibitors of human PMI, primary screen, biochemical, fluorescence intensity, coupled assay (AID 1209); settings: purified PMI enzyme, at 20 µM;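 further: plate controls were DMSO vehicle for no effect and wells lacking substrate for full effect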
About 810 (0.43%) of roughly 190,000 compounds were called active. Cut-off read from the data, not from the text of the source: active = inhibition above about 50%; inactive = the rest. This excerpt belongs to a sample that is enriched for actives.
Entry note: the call must match one of active, inactive

[
  {
    "CHEMICAL STRUCTURE": "CNC(=O)NCC12CC3CC(CC(C3)C1)C2",
    "CLASS": "inactive"
  }
]

[ask] Name the outcome recorded for Cc1ccc2[nH]c3c(c2c1)CCc1cn[nH]c1-3 in the assay.
[reply] active

[ask] Which outcome was entered for the compound Cc1ccc(-c2nc(N)sc2C)cc1 in this test?
[reply] inactive

* * *

molecular target: Mannose-6-phosphate isomerase (Homo sapiens); assay: inhibitors of human PMI, primary screen, biochemical, fluorescence intensity, coupled assay (AID 1209); conditions: purified PMI enzyme, at 20 µM, active compounds read high;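 further: plate controls were DMSO vehicle for no effect and wells lacking substrate for full effect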
The campaign covered roughly 190,000 compounds. About 810 (0.43%) were called active. This is one part of a sample in which actives are shown more often than they occur.
// reported inhibition for each item listed
Quick note: give the figure in %, leave out the unit.

See these solved cases before continuing.
[
  {
    "COMPOUND": "CCOc1ccc(Cn2nnc(C(=O)Nc3cc(C)cc(C)c3)c2N)cc1",
    "inhibition (%)": 18.5
  },
  {
    "COMPOUND": "O=C(CCNC(=O)c1ccccc1Cl)Nc1ccc(Br)c(C(F)(F)F)c1",
    "inhibition (%)": 15
  },
  {
    "COMPOUND": "c1csc(-c2nn3c(C4COc5ccccc5O4)nnc3s2)c1 (stereo unspecified)",
    "inhibition (%)": 37.9
  },
  {
    "COMPOUND": "Cc1ccc(NC(=O)COC(=O)c2ccc3c(c2)C(=O)N(CCc2ccccc2)C3=O)c(C)c1",
    "inhibition (%)": 4.6
  }
]

Given item Cc1ccc(COc2ccc(Br)cc2/C=N/O)cc1 , the value recorded as its inhibition is 19.7

The compound listed as CC(C)c1nc(CN2CCCCC2)cc(=O)[nH]1 shows inhibition equal to 8.6

* * *

biological target: Mannose-6-phosphate isomerase (Homo sapiens) (UniProt P34949); test: inhibitors of human PMI, primary screen, biochemical, fluorescence intensity, coupled assay (AID 1209); settings: purified PMI enzyme, at 20 µM, active compounds read high;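 further: plate controls were DMSO vehicle for no effect and wells lacking substrate for full effect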
About 810 (0.43%) of roughly 190,000 compounds were called active. This excerpt belongs to a sample that is enriched for actives.
Below: a set of entries, each annotated with reported inhibition.
Please respond with the number in % and leave the unit unwritten.

Examples with their reported inhibition follow.
[
  {
    "COMPOUND": "COc1ccc(NC(=O)c2ccc3nccnc3c2)cc1",
    "ASSAY TARGET": "Mannose-6-phosphate isomerase (Homo sapiens) (UniProt P34949)",
    "inhibition [%]": -5.2
  },
  {
    "COMPOUND": "COc1ccc(NC(=S)Nc2ccc3snnc3c2)cc1",
    "ASSAY TARGET": "Mannose-6-phosphate isomerase (Homo sapiens) (UniProt P34949)",
    "inhibition [%]": 25
  },
  {
    "COMPOUND": "CCOc1ccc(NC(=S)Nc2ccc3nsnc3c2)cc1",
    "ASSAY TARGET": "Mannose-6-phosphate isomerase (Homo sapiens) (UniProt P34949)",
    "inhibition [%]": 46.4
  },
  {
    "COMPOUND": "CCOC(=O)C1CCN(C(=O)CC(C)c2ccccc2)CC1 (configuration not stated)",
    "ASSAY TARGET": "Mannose-6-phosphate isomerase (Homo sapiens) (UniProt P34949)",
    "inhibition [%]": -0.6
  }
]

For record Cc1ccc(NC(=S)N(CCCN2CCC(C)CC2)Cc2ccco2)cc1 the listed inhibition is 81.3

According to the records, this compound CCOC(=O)c1c(N)sc(N)c1C(=O)OCC displays inhibition of 60.1

Notebook: Cc1cc(=O)c(C(=O)O)cn1Nc1ccc(F)cc1 , inhibition read as -5.7

In plain terms, Oc1ccc(-c2cn3c(n2)SCC3)cc1O has a documented inhibition of 59.5

Looking up CCn1c(N)c(C(N)=O)sc1=S , I see its inhibition listed as 18.4

What the record says about O=C(CSc1nc2c(sc3ccccc32)c(=O)n1Cc1ccccc1)NCC1CCCO1 (configuration not stated) : inhibition is 15.3
